Target: human transferrin receptor (hTfR) (Homo sapiens, UniProt P02786)
Sequence (P02786 whole entry): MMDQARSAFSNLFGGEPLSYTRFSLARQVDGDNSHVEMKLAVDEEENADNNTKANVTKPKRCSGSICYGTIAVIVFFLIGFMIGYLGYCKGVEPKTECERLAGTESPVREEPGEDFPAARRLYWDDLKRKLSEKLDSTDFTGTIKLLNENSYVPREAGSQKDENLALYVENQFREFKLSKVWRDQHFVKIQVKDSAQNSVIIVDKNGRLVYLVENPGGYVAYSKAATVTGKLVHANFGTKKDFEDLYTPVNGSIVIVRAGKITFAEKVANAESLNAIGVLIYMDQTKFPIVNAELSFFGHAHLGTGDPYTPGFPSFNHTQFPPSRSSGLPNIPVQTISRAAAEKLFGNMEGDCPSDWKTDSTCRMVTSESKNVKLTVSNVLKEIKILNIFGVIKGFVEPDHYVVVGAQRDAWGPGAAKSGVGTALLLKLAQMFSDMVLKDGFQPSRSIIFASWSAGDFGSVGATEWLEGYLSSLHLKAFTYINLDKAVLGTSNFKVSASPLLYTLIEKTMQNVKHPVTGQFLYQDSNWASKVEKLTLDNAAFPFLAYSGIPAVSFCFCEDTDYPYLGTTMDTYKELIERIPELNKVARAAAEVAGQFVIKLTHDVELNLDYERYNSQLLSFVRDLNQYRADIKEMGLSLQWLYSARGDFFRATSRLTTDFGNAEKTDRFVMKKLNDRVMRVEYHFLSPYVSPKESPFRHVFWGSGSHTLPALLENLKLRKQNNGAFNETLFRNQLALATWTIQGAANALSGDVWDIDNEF
Assay: SPR measurement under pH 6.0 conditions (Biacore T200, NTA chip, immobilized hTfR)
Assay type: binding
Conditions: pH 6.0, single-cycle kinetics; read-out: hTfR SPR pH6.0 KD
pKd: −log10 of the molar value.
propertyLabel: pKd

molSmiles: CC[C@H](C)[C@@H]1NC(=O)[C@H](Cc2ccc(OC)cc2)NC(=O)[C@H](Cc2ccc(N)nc2)NC(=O)[C@H](CC(N)=O)NC(=O)[C@H](Cc2c[nH]c3ncccc23)NC(=O)[C@H](C(C)C)NC(=O)[C@H](Cc2cccc(Cl)c2)N(C)C(=O)[C@H](C(C)C)NC(=O)[C@H](C)NC(=O)CSC[C@@H](C(=O)NCCOCCOCCOCCOCCC(N)=O)NC(=O)[C@H](Cc2ccc(O)cc2)N(C)C(=O)[C@H](Cc2ccncc2)NC(=O)[C@H](CCCNC(=N)N)NC(=O)[C@H](CCCNC(=N)N)NC(=O)[C@H]([C@@H](C)CC)NC1=O
valueObserved: 7.74

---

Biological target: human transferrin receptor (hTfR) (Homo sapiens, UniProt P02786)
Test: SPR measurement under pH 6.0 conditions (Biacore T200, NTA chip, immobilized hTfR)
Assay type: binding
Details: SPR, pH 6.0; peptide with the linker named in the table; read-out: hTfR SPR pH6.0 KD
pKd: −log10 of the molar value.

molecule: CCC(CC)[C@@H]1NC(=O)[C@H](Cc2ccc(O)cc2)NC(=O)[C@H](Cc2ccc(O)cc2)NC(=O)[C@H](CC(N)=O)NC(=O)[C@H](Cc2c[nH]c3ccccc23)N(C)C(=O)[C@H](C(C)C)NC(=O)[C@H](Cc2ccccc2)N(C)C(=O)[C@H](C(C)C)NC(=O)[C@H](C)NC(=O)CSC[C@@H](C(=O)NCCOCCOCCOCCOCCC(N)=O)NC(=O)[C@H](Cc2ccc(O)cc2)N(C)C(=O)[C@H](Cc2ccc(O)cc2)NC(=O)[C@H](CCCNC(=N)N)NC(=O)[C@H](CCCCN)NC(=O)[C@H]([C@@H](C)CC)NC1=O [compound 117]
pKd: 7.86
--
molecule: CC[C@H](C)[C@@H]1NC(=O)[C@H](Cc2ccc(O)cc2)NC(=O)[C@H](Cc2ccc(N)nc2)NC(=O)[C@H](CC(N)=O)NC(=O)[C@H](Cc2c[nH]c3ccccc23)NC(=O)[C@H](C(C)C)NC(=O)[C@H](Cc2ccccc2)N(C)C(=O)[C@H](C(C)C)NC(=O)[C@H](C)NC(=O)CSC[C@@H](C(=O)NCCOCCOCCOCCOCCC(N)=O)NC(=O)[C@H](Cc2ccc(O)cc2)N(C)C(=O)[C@H](Cc2ccc(O)cc2)NC(=O)[C@H](CCCNC(=N)N)NC(=O)[C@H](CCCCN)NC(=O)[C@H]([C@@H](C)CC)NC1=O [compound 123]
pKd: 7.76
--
molecule: CC[C@H](C)[C@@H]1NC(=O)[C@H](Cc2ccc(OC)cc2)NC(=O)[C@H](Cc2ccc(O)cc2)NC(=O)[C@H](CC(N)=O)NC(=O)[C@H](Cc2cn(C)c3ccccc23)NC(=O)[C@H](C(C)C)NC(=O)[C@H](Cc2cccc(Cl)c2)N(C)C(=O)[C@H](C(C)C)NC(=O)[C@H](C)NC(=O)CSC[C@@H](C(=O)NCCOCCOCCOCCOCCC(N)=O)NC(=O)[C@H](Cc2ccc(O)cc2)N(C)C(=O)[C@H](Cc2ccncc2)NC(=O)[C@H](CCCNC(=N)N)NC(=O)[C@H](CCCCN)NC(=O)[C@H]([C@@H](C)CC)NC1=O [compound 130]
pKd: 8.76
--
molecule: CC[C@H](C)[C@@H]1NC(=O)[C@H](Cc2ccc(O)cc2)NC(=O)[C@H](Cc2ccc(O)cc2)NC(=O)[C@H](CC(N)=O)NC(=O)[C@H](Cc2c[nH]c3ccccc23)N(C)C(=O)[C@H](C(C)C)NC(=O)[C@H](Cc2cccnc2)N(C)C(=O)[C@H](C(C)C)NC(=O)[C@H](C)NC(=O)CSC[C@@H](C(=O)NCCOCCOCCOCCOCCC(N)=O)NC(=O)[C@H](Cc2ccc(O)cc2)N(C)C(=O)[C@H](Cc2ccc(O)cc2)NC(=O)[C@H](CCCNC(=N)N)NC(=O)[C@H](CCCCN)NC(=O)[C@H]([C@@H](C)CC)NC1=O [compound 135]
pKd: 7.82

---

Biological target: human transferrin receptor (hTfR) (Homo sapiens, UniProt P02786)
Assay: SPR measurement under pH 7.4 conditions (Biacore T200, CM3 chip, hTfR captured by His Tag antibody)
Type: binding
Conditions: pH 7.4, single-cycle kinetics; read-out: hTfR SPR pH7.4 KD
pKd: −log10 of the molar value.

molSmiles: CC[C@H](C)[C@@H]1NC(=O)[C@H](Cc2ccc(OCC(=O)N3CCN(CC(=O)O)CC3)cc2)NC(=O)[C@H](Cc2ccc(O)cc2)NC(=O)[C@H](CC(N)=O)NC(=O)[C@H](Cc2c[nH]c3ncccc23)NC(=O)[C@H](C(C)C)NC(=O)[C@H](Cc2cccc(Cl)c2)N(C)C(=O)[C@H](C(C)C)NC(=O)[C@H](C)NC(=O)CSC[C@@H](C(=O)NCCOCCOCCOCCOCCC(N)=O)NC(=O)[C@H](Cc2ccc(O)cc2)N(C)C(=O)[C@H](Cc2ccncc2)NC(=O)[C@H](CCCNC(=N)N)NC(=O)[C@H](CCC(N)=O)NC(=O)[C@H]([C@@H](C)CC)NC1=O
measuredTarget: human transferrin receptor (hTfR) (Homo sapiens, UniProt P02786)
pKd: 8.53

---

Biological target: human transferrin receptor (hTfR) (Homo sapiens)
Experiment: SPR measurement under pH 7.4 conditions (Biacore T200, CM3 chip, hTfR captured by His Tag antibody)
Type: binding
Details: pH 7.4, single-cycle kinetics; read-out: hTfR SPR pH7.4 KD
# maps each entry to its Kd

compound: CC[C@H](C)[C@@H]1NC(=O)[C@H](Cc2ccc(OCC(=O)O)cc2)NC(=O)[C@H](Cc2ccc(O)cc2)NC(=O)[C@H](CC(N)=O)NC(=O)[C@H](Cc2c[nH]c3ccccc23)N(C)C(=O)[C@H](C(C)C)NC(=O)[C@H](Cc2cccc(Cl)c2)N(C)C(=O)[C@H](C(C)C)NC(=O)[C@H](C)NC(=O)CSC[C@@H](C(=O)NCCOCCOCCOCCOCCC(N)=O)NC(=O)[C@H](Cc2ccc(O)cc2)N(C)C(=O)[C@H](Cc2cccc(C(=O)O)c2)NC(=O)[C@H](CCCNC(=N)N)NC(=O)[C@H](CCCCN)NC(=O)[C@H]([C@@H](C)CC)NC1=O [compound 177]
Kd [nM]: 0.134
--
compound: CC[C@H](C)[C@@H]1NC(=O)[C@H](Cc2ccc(OC)cc2)NC(=O)[C@H](Cc2ccc(N)nc2)NC(=O)[C@H](CC(N)=O)NC(=O)[C@H](Cc2c[nH]c3ncccc23)NC(=O)[C@H](C(C)C)NC(=O)[C@H](Cc2cccc(Cl)c2)N(C)C(=O)[C@H](C(C)C)NC(=O)[C@H](C)NC(=O)CSC[C@@H](C(=O)NCC(=O)N[C@@H](CCCCN=[N+]=[N-])C(N)=O)NC(=O)[C@H](Cc2ccc(O)cc2)N(C)C(=O)[C@H](Cc2ccncc2)NC(=O)[C@H](CCCNC(=N)N)NC(=O)[C@H](CCCNC(=N)N)NC(=O)[C@H]([C@@H](C)CC)NC1=O [compound 66]
Kd [nM]: 2.27
--
compound: CC[C@H](C)[C@@H]1NC(=O)[C@H](Cc2ccc(OC)cc2)NC(=O)[C@H](Cc2ccc(N)nc2)NC(=O)[C@H](CC(N)=O)NC(=O)[C@H](Cc2c[nH]c3ncccc23)NC(=O)[C@H](C(C)C)NC(=O)[C@H](Cc2cccc(Cl)c2)N(C)C(=O)[C@H](C(C)C)NC(=O)[C@H](C)NC(=O)CSC[C@@H](C(=O)NCCOCCOCCOCCOCCC(N)=O)NC(=O)[C@H](Cc2ccc(O)cc2)N(C)C(=O)[C@H](Cc2ccncc2)NC(=O)[C@H](CCCNC(=N)N)NC(=O)[C@H](CCCNC(=N)N)NC(=O)[C@H]([C@@H](C)CC)NC1=O [compound 1]
Kd [nM]: 1.56

---

Target: human transferrin receptor (hTfR) (Homo sapiens, UniProt P02786)
Experiment: SPR measurement under pH 6.0 conditions (Biacore T200, NTA chip, immobilized hTfR)
Assay type: binding
Conditions: pH 6.0, single-cycle kinetics; read-out: hTfR SPR pH6.0 KD
pKd: −log10 of the molar value.
propertyLabel: pKd

molecule: CC[C@H](C)[C@@H]1NC(=O)[C@H](Cc2ccc(OC)cc2)NC(=O)[C@H](Cc2ccc(N)nc2)NC(=O)[C@H](CC(N)=O)NC(=O)[C@H](Cc2c[nH]c3ncccc23)NC(=O)[C@H](C(C)C)NC(=O)[C@H](Cc2cccc(Cl)c2)N(C)C(=O)[C@H](C(C)C)NC(=O)[C@H](C)NC(=O)CSC[C@@H](C(=O)NCC(=O)N[C@@H](CCCCN=[N+]=[N-])C(N)=O)NC(=O)[C@H](Cc2ccc(O)cc2)N(C)C(=O)[C@H](Cc2ccncc2)NC(=O)[C@H](CCCNC(=N)N)NC(=O)[C@H](CCCNC(=N)N)NC(=O)[C@H]([C@@H](C)CC)NC1=O [compound 66]
measuredTarget: human transferrin receptor (hTfR) (Homo sapiens, UniProt P02786)
propertyLabel: pKd
valueObserved: 7.79
--
molecule: CC[C@H](C)[C@@H]1NC(=O)[C@H](Cc2ccc(OCC(=O)O)cc2)NC(=O)[C@H](Cc2ccc(O)cc2)NC(=O)[C@H](CC(N)=O)NC(=O)[C@H](Cc2c[nH]c3ccccc23)N(C)C(=O)[C@H](C(C)C)NC(=O)[C@H](Cc2cccc(Cl)c2)N(C)C(=O)[C@H](C(C)C)NC(=O)[C@H](C)NC(=O)CSC[C@@H](C(=O)NCCOCCOCCOCCOCCC(N)=O)NC(=O)[C@H](Cc2ccc(O)cc2)N(C)C(=O)[C@H](Cc2cccc(C(=O)O)c2)NC(=O)[C@H](CCCNC(=N)N)NC(=O)[C@H](CCCCN)NC(=O)[C@H]([C@@H](C)CC)NC1=O [compound 177]
measuredTarget: human transferrin receptor (hTfR) (Homo sapiens, UniProt P02786)
propertyLabel: pKd
valueObserved: 8.65
--
molecule: CC[C@H](C)[C@@H]1NC(=O)[C@H](Cc2ccc(OCC(=O)N3CCN(CC(=O)O)CC3)cc2)NC(=O)[C@H](Cc2ccc(O)cc2)NC(=O)[C@H](CC(N)=O)NC(=O)[C@H](Cc2c[nH]c3ncccc23)NC(=O)[C@H](C(C)C)NC(=O)[C@H](Cc2cccc(Cl)c2)N(C)C(=O)[C@H](C(C)C)NC(=O)[C@H](C)NC(=O)CSC[C@@H](C(=O)NCCOCCOCCOCCOCCC(N)=O)NC(=O)[C@H](Cc2ccc(O)cc2)N(C)C(=O)[C@H](Cc2ccncc2)NC(=O)[C@H](CCCNC(=N)N)NC(=O)[C@H](CCC(N)=O)NC(=O)[C@H]([C@@H](C)CC)NC1=O [compound 16]
measuredTarget: human transferrin receptor (hTfR) (Homo sapiens, UniProt P02786)
propertyLabel: pKd
valueObserved: 7.39
--
molecule: CC[C@H](C)[C@@H]1NC(=O)[C@H](Cc2ccc(OC)cc2)NC(=O)[C@H](Cc2ccc(O)cc2)NC(=O)[C@H](CC(N)=O)NC(=O)[C@H](Cc2c[nH]c3ccccc23)N(C)C(=O)[C@H](C(C)C)NC(=O)[C@H](Cc2cccc(Cl)c2)N(C)C(=O)[C@H](C(C)C)NC(=O)[C@H](C)NC(=O)CSC[C@@H](C(=O)NCCOCCOCCOCCOCCC(N)=O)NC(=O)[C@H](Cc2ccc(O)cc2)N(C)C(=O)[C@H](Cc2ccccc2)NC(=O)[C@H](CCCNC(=N)N)NC(=O)[C@H](CCC(=O)NCCCN)NC(=O)[C@H]([C@@H](C)CC)NC1=O [compound 171]
measuredTarget: human transferrin receptor (hTfR) (Homo sapiens, UniProt P02786)
propertyLabel: pKd
valueObserved: 9.17
